Molecular target: T1, Recombinant human CD4 (R&D Systems, Cat. 10327-CD) (human, UniProt P01730 26-390, limits assumed)
T1 construct: Bought reagent; also called huCD4
Experiment: BLI Octet, non-clonal supernatant on AMC sensor, 100 nM human CD4;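 note: hybridoma supernatants diluted 1:3, antibodies captured on AMC biosensors, association and dissociation with CD4 followed, curves smoothed and fit locally with 1:1 binding model for single-point kinetics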
measurement label: Response

• 75110_04K10A (antibody, V domains shown, Tested as non-clonal AlivaMab Mouse Kappa hybridoma supernatant, captured by anti-mouse IgG Fc sensor) VH: EVQLVESGGGLVQPGGSLRLSCAASGFTFSSYWMSWVRQAPGKGLEWVANINQDGSEKYYVDSVKGRFTISRDNAKNSLYLQLNSLRAEDTAMYYCAREGGQWLSLDYWGQGTLVTVSS VL: DIQMTQSPSSVSASVGDRVTITCRASQGISSWLAWYQQKPGKAPKVLIYGVSSFQSGVPSRFSGSGSGTDFILTISSLQPEDFATYYCQQANSFPWTFGQGTKVEIK = 0.23
• 75110_02N15A (antibody, V domains shown, Tested as non-clonal AlivaMab Mouse Kappa hybridoma supernatant, captured by anti-mouse IgG Fc sensor) VH: EVQLVESGGGLVQPGGSLRLSCAASGFTFSSYWMSWVRQAPGKGLEWVANINEDGNEKYYVDSVKGRFTISRDNAKNSLFLQMNSLRAEDTAVYFCAREGGQWLALDHWGQGALVTVSS VL: DIQMTQSPSSVSASVGDRVTITCRASQGISSWLAWYQQKPGKAPKFLISGASSLQSGVPSRFSGSGSGTDFTLTISSLQPEDFATYYCQQANSFPWTFGQGTKVEFK = 0.16
• 75110_14I16A (antibody, V domains shown, Tested as non-clonal AlivaMab Mouse Kappa hybridoma supernatant, captured by anti-mouse IgG Fc sensor) VH: QVQLQESGPGLVKPSETLSLTCTVSNGSISSYYWSWIRQSAGKGLEWIGRIYTSGSTNYNPSLKSRVTMLVDTSKNQFSLKLSSVTAADTAVYYCARDREDYYYYGMDVWGQGTTVTVSS VL: DIQMTQSPSSLSASVGDRVTITCQASHDISNYLNWYQQKPGKAPKLLLYYASNLETGVPSRFSGSGSGTDFTFTITSLQPEDIGTYSCQQYDNLPLTFGGGTKVEIK = 0.0852
• 75110_12C19A (antibody, V domains shown, Tested as non-clonal AlivaMab Mouse Kappa hybridoma supernatant, captured by anti-mouse IgG Fc sensor) VH: EVQLVESGGGLVQPGGSLRLSCAASGFTFSSYWMSWVRQAPGKGLEWVANIKEDGSDKYYVDSVKGRFTISRDNAKNSLYLQMNSLRAEDTAVHYCVREGGQWLALDYWGQGTLVTVSS VL: DIQMTQSPSSVSGSVGDRVTITCRASQGISSWLAWYQQKPGKAPKLLIYGASSLQSGVPSRFSGSGSGTDFTLTISSLQPEDFVTYYCQQANSFPWTFGQGTKVEIK = 0.106
• 75110_13P21A (antibody, V domains shown, Tested as non-clonal AlivaMab Mouse Kappa hybridoma supernatant, captured by anti-mouse IgG Fc sensor) VH: QVQLQQWGAGLLKPSETLSLTCAVSGGSFSGYYWSWIRQPPGKGLEWIGEINHSGSTNCNPSLKSRVTISVDTSNNQFSLKLSSVTAADTAVYYCARVLNYFDYWGQGTLVTVSS VL: DIQMTQSPSSVSASVGDRVTITCRASPDIANWLAWYQQKPGKAPELLIYAASSLQSGVPSRFSGSGSGTDFTLTISSLQPEDFATYFCQQANSFPLTFGGGTKVESK = 0.12
